target: Lysozyme; experiment: yeast display titration; KD, yeast
MEASURED_ATTRIBUTE: Kd

**Query** Would you mind telling me what Kd value was observed for KFWATVFSYGNLFEVPVYAETLDEALELAEWQYSGAYEYVTRVRP (designed binder) [Lysozyme A0.3.2] ?
**Result** ~1550 nM
